Kindly supply the reported PBM binding z-score values for the records listed here.
- System: RARg homodimer (NR concentration 270 nM)
- assay.notes: PBM binding z-score (relative to random genomic background probes); higher = stronger binding; sequences stand for … in GC…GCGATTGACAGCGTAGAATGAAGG

Check out these entries, answers already filled in.
GET PBM binding z-score | system: RARg homodimer (NR concentration 270 nM) | item: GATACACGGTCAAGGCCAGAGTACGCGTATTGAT
2.53

Consider the sequence AGAATGAGGTTAGCAAAGATCAGGGAAACGCTTG tested on RARg homodimer (NR concentration 270 nM); state its PBM binding z-score.
0.899

Please look at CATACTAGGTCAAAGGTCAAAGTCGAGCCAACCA and tell me its recorded PBM binding z-score on RARg homodimer (NR concentration 270 nM).
7.33

For every record below, what is its PBM binding z-score?
1. CCTTACAGGTCACGAGGTTATAGCACGACGAGCG
2. TCTCGGAGGACACGAAAGGTCAGAACTCGACATC

1: 6.12; 2: 5.19

Parameters: items (list). Returns: PBM binding z-score for each item.
1. CGAACTAGGTCAAAGGGCAGTGAAAGGCGACGTA
2. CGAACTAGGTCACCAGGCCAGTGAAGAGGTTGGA
3. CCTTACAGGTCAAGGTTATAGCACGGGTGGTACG
4. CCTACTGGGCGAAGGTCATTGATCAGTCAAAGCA

[4.91, 5.11, 5.53, 2.52]

====

- Tested on: FXR:RXRa (NR concentration 270 nM, RXRa partner concentration 90 nM)
- assay.notes: PBM binding z-score (relative to random genomic background probes); higher = stronger binding; sequences stand for … in GC…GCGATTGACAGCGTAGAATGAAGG
readout.label: PBM binding z-score
Answers are plain numbers.

Example sequences with recorded PBM binding z-score:
Specify measured PBM binding z-score for CCTAGTTGGTCAAGGTCCCACACGCTATAGGTAC .
0.27

Determine its reported PBM binding z-score: CGTCAAAGTTCAAGGTAAAGTAACAGAAAGCAGC
5.75

***
Answer with the recorded PBM binding z-score of CACACTAGGTCAAAGGTCAAAGTCGAGCCAACCA only.
8.41

====

- Tested on: PPARg:RXRa DBDmut IVT, anti-RXR (DBD mutation: RXRa K156A/R161A, NR concentration 270 nM, RXRa partner concentration 90 nM)
- assay.notes: PBM binding z-score (relative to random genomic background probes); higher = stronger binding; sequences stand for … in GC…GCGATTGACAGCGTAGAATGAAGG
Returns t if the recorded PBM binding z-score is greater than or equal to 4, and f otherwise.

Please review the entries below; each comes with its answer.
Reported PBM binding z-score reaches at least 4 for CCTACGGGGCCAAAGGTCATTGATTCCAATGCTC ?
f

Quick check: does CCTACTGGGCCAATAAGGTCATTGATGCCGATAA have PBM binding z-score greater than or equal to 4?
f

Given CGAACTAGGTCAAAGGACCGTGAAAGGCGACGTA , state whether its PBM binding z-score is at least 4.
t

Form field: PBM binding z-score at least 4? Entry: TCTTGTAGATCAAAGGTTAAGACAGCCGAAGCCT
f

Is it the case that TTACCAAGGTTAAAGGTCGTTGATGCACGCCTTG has PBM binding z-score reaching or exceeding 4?
f

Check the entry ATCGAAAGGTCGCAGGTGAGTATACCCACCCGAA : does PBM binding z-score equal or exceed 4?
f

Quick check: does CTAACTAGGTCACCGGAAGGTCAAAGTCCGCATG have PBM binding z-score greater than or equal to 4?
t

// inclusive: PBM binding z-score at least 4? input: ATATGTAGGTTCGGGTCATTCAGAAAGTAGGGAA
f

---
Does PBM binding z-score meet or surpass 4 for CGAACTAGGTCACCAGGACTGTGAAGAGGTTGGA ?
t

Could you please find out whether TCGAGTAGGTTACGGGGGCATGCAGGGATGAAGA has PBM binding z-score that meets 4 or exceeds it?
t
